B1: VH:VL chains; a variant is named by its letters at X, in order (parent)
chain 1: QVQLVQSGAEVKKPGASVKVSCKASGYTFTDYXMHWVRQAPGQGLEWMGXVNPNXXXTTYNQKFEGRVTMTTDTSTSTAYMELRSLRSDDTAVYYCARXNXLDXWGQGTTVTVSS
chain 2: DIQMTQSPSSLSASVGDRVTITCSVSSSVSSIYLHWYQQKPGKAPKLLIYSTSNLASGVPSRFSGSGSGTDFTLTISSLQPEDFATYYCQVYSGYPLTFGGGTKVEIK

Variants of: B1
experiment notes: yeast display scFab, FACS + sequencing
test context: with MET
This is one part of the list. The hit rate among all sequences tested is not known here.
property measured: antigen binding call

As a guide, the following entries are already answered.
Q: Please list antigen binding call recorded for the variant "FKGRGAWS"
A: binds

Q: Please list antigen binding call recorded for the variant "DARGGAAV"
A: no binding

Q: Please list antigen binding call recorded for the variant "VRRKDFLA"
A: no binding

Q: Please list antigen binding call recorded for the variant "YTGGDDGF"
A: no binding

Q: Please list antigen binding call recorded for the variant "YTRGAAGV"
A: no binding

Q: Please list antigen binding call recorded for the variant "VTGTGAVV"
A: no binding

Others:
Q: Please list antigen binding call recorded for the variant "YRRGAAAV"
A: binds

Q: Please list antigen binding call recorded for the variant "YRGKDALA"
A: binds

Q: Please list antigen binding call recorded for the variant "FRATSAVD"
A: no binding

Q: Please list antigen binding call recorded for the variant "VAEEDAGY"
A: no binding

Q: Please list antigen binding call recorded for the variant "YKGKGSVS"
A: binds

Q: Please list antigen binding call recorded for the variant "YRGGGYGF"
A: no binding

Q: Please list antigen binding call recorded for the variant "VRAGADVA"
A: no binding

Q: Please list antigen binding call recorded for the variant "YRGRGYGA"
A: binds

Q: Please list antigen binding call recorded for the variant "SEARSDWA"
A: no binding

Q: Please list antigen binding call recorded for the variant "YKGGGAGS"
A: binds

Q: Please list antigen binding call recorded for the variant "DRRANFLY"
A: no binding

Q: Please list antigen binding call recorded for the variant "YRRGASGV"
A: binds

Q: Please list antigen binding call recorded for the variant "DEGGGAGS"
A: no binding

Q: Please list antigen binding call recorded for the variant "FTEEGAVD"
A: no binding

Q: Please list antigen binding call recorded for the variant "FKTGDAWS"
A: no binding

Q: Please list antigen binding call recorded for the variant "YATEGVWV"
A: no binding

Q: Please list antigen binding call recorded for the variant "YEGGGYSF"
A: no binding
